Measured growth of individual entries
Test system: K-562 leukemia
method description: NCI-60 one-dose screen, 48 h (100 = growth as untreated, 0 = no growth, -100 = all killed)
measurement context: 10 µM unless noted
This is part of a sample that, as a whole, favours compounds with a hit. Of some 83,000 tested, about 20% had one in any assay. Activity calls are given as the source filed them. How the source made its calls: active means growth percent below 10; inactive means the rest.

[ask] Name the recorded growth for "COc1cccc(NC(=O)c2sc3nc4c(cc3c2N)CN(Cc2ccccc2)CC4)c1" .
[reply] 33.2% (inactive)

[ask] Quick one: "NC(=S)N/N=C/c1ccc(OCc2ccccc2)cc1"
[reply] 43.7% (inactive)

[ask] Now this one: C=C1CC2(OC1=O)C(=O)N(CCCCCCCN1C(=O)C3(CC(=C)C(=O)O3)c3ccccc31)c1ccccc12 (stereo unspecified)
[reply] 5% (active)

[ask] Check "COc1ccc(-c2cc(-c3ccc(N(C)C)cc3)nc(NC(=O)c3ccncc3)n2)cc1" too.
[reply] 95% (inactive)

[ask] // next record "COc1cc2c(=O)n(CC3CCCCC3)c3c4cc[nH]c4ncc3c2cc1OC"
[reply] 5.36% (active)

[ask] Check "CN1CCN(Cc2ccc(NC(=O)c3[nH]ncc3Nc3ncnc4[nH]ccc34)cc2)CC1" too.
[reply] 5.62% (active)
